Experiment: In-vivo pharmacokinetic study on SD rats, intravenous and oral
Settings: rat, plasma, PO @ 5 mg/kg, read-out: Bioavailability F %
test readout: bioavailability

Guide cases for bioavailability, answers given:
- compound: "O=C1N[C@H]2C[C@H](C2)Oc2ncc(F)cc2[C@H]2CCCN2c2nc3c1cnn3cc2F"
  result: "70.9%"
- compound: "O=C1N[C@H]2C[C@H](C2)Oc2ncc(F)cc2[C@H]2CCCN2c2ccn3ncc1c3n2 (stereo in doubt) [Positive control 1, reference compound]"
  result: "75.1%"
- compound: "C[C@H]1Nc2nc3c(cnn3cc2F)C(=O)N[C@H]2C[C@H](C2)Oc2ncc(F)cc21"
  result: "119%"

Now turn to the next compound.
Field request: bioavailability | item: C[C@H]1Nc2ccn3ncc(c3n2)C(=O)N[C@H]2C[C@H](C2)Oc2ncc(F)cc21 [Positive control 2, reference compound]
66.3%

----------
Molecular target: TRKA(G595R) (Homo sapiens (Human), UniProt P04629, G595R)
Sequence (P04629 33-796 G595R): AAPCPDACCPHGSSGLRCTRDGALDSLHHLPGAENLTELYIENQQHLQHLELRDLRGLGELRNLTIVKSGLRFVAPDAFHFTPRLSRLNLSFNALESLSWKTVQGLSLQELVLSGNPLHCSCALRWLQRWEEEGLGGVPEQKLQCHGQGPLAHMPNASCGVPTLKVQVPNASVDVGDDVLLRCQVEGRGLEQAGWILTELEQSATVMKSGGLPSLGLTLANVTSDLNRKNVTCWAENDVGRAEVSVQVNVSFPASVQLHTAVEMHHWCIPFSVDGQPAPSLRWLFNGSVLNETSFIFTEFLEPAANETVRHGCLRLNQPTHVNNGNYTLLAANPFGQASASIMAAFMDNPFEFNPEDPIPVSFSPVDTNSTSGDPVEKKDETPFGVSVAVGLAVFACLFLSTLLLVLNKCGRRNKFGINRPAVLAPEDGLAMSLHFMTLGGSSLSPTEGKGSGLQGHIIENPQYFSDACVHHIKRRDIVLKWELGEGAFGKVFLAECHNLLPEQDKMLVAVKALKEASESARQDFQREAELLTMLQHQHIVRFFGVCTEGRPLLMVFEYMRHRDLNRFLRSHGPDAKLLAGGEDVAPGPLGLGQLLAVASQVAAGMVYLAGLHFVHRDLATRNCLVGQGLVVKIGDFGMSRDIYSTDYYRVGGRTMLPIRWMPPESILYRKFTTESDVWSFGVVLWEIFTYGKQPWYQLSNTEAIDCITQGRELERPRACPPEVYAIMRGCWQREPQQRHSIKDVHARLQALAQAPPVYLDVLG
Experiment: Kinase inhibitory activity (Caliper mobility shift), TRKA(G595R)
test readout: IC50 (nM)
Provide only the numeric value, understood in nM.

Record excerpt, results attached:
- compound: "C[C@H]1Nc2nc3c(cnn3cc2F)C(=O)N[C@H]2C[C@H](C2)Oc2ncc(F)cc21 [Example 3]"
  IC50 / nM: 0.89
- compound: "C[C@H]1Nc2ccn3ncc(c3n2)C(=O)N[C@H]2C[C@H](C2)Oc2ncc(F)cc21 [Positive control 2, reference compound]"
  IC50 / nM: 0.97
- compound: "C[C@H]1Nc2ccn3nc(F)c(c3n2)C(=O)N[C@H]2C[C@H](C2)Oc2ncc(F)cc21 [Example 6]"
  IC50 / nM: 2.9
- compound: "O=C1N[C@H]2C[C@H](C2)Oc2ncc(F)cc2[C@H]2CCCN2c2ccn3ncc1c3n2 (stereo in doubt) [Positive control 1, reference compound]"
  IC50 / nM: 0.72

Which IC50 is reported with TRKA(G595R) (Homo sapiens (Human), UniProt P04629, G595R) for this entry: C[C@H]1Nc2nc3c(cnn3cc2F)C(=O)NC2CC(C2)Oc2ncccc21 [Example 5] ?
561

Write down the reported IC50 of C[C@@H]1CCc2ncc(F)cc2[C@H]2CCCN2c2nc3c(cnn3cc2F)C(=O)N1 [Example 1] , test system: TRKA(G595R) (Homo sapiens (Human), UniProt P04629, G595R).
2.5

----------
Catalogue of IC50 readings, one per entry.
Biological target: TRKC(G623R) (Homo sapiens (Human), UniProt Q16288, G623R)
Sequence (Q16288 32-839 G623R): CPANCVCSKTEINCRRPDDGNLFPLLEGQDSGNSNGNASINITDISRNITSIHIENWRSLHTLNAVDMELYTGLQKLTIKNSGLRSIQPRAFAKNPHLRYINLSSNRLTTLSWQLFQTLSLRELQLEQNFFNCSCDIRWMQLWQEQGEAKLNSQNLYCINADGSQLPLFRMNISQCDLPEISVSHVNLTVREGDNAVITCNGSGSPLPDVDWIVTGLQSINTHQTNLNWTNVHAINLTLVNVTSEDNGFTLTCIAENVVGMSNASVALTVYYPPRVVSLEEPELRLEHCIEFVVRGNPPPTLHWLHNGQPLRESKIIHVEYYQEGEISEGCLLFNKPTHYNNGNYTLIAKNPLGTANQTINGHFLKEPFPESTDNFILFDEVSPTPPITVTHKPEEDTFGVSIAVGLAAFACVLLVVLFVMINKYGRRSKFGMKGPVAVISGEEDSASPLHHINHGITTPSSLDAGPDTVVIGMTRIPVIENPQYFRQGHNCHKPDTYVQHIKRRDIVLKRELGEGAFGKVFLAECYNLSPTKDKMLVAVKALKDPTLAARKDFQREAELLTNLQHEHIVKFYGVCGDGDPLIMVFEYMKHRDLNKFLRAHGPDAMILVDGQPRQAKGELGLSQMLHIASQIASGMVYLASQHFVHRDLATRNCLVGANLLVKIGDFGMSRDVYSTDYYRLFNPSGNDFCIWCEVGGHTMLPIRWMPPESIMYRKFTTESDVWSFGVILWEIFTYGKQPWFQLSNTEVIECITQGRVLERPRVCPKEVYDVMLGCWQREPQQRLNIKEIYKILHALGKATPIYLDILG
Experiment: Kinase inhibitory activity (Caliper mobility shift), TRKC(G623R)
Note: unit nM is implicit; provide only the numeric part.

Sample records with IC50:
- compound: "O=C1N[C@H]2C[C@H](C2)Oc2ncc(F)cc2[C@H]2CCCN2c2ccn3ncc1c3n2 (stereo in doubt) [Positive control 1, reference compound]"
  assayed system: "TRKC(G623R) (Homo sapiens (Human), UniProt Q16288, G623R)"
  IC50 / nM: 1.7
- compound: "C[C@@H]1CCc2ncc(F)cc2[C@H]2CCCN2c2nc3c(cnn3cc2F)C(=O)N1 [Example 1]"
  assayed system: "TRKC(G623R) (Homo sapiens (Human), UniProt Q16288, G623R)"
  IC50 / nM: 3.7

I would be grateful if you could share the reported IC50 for C[C@H]1Nc2ccn3nc(F)c(c3n2)C(=O)N[C@H]2C[C@H](C2)Oc2ncc(F)cc21 [Example 6] .
8.2
